System: Mast/stem cell growth factor receptor Kit (Homo sapiens), P10721 [D816V]
Sequence (P10721 whole entry D816V): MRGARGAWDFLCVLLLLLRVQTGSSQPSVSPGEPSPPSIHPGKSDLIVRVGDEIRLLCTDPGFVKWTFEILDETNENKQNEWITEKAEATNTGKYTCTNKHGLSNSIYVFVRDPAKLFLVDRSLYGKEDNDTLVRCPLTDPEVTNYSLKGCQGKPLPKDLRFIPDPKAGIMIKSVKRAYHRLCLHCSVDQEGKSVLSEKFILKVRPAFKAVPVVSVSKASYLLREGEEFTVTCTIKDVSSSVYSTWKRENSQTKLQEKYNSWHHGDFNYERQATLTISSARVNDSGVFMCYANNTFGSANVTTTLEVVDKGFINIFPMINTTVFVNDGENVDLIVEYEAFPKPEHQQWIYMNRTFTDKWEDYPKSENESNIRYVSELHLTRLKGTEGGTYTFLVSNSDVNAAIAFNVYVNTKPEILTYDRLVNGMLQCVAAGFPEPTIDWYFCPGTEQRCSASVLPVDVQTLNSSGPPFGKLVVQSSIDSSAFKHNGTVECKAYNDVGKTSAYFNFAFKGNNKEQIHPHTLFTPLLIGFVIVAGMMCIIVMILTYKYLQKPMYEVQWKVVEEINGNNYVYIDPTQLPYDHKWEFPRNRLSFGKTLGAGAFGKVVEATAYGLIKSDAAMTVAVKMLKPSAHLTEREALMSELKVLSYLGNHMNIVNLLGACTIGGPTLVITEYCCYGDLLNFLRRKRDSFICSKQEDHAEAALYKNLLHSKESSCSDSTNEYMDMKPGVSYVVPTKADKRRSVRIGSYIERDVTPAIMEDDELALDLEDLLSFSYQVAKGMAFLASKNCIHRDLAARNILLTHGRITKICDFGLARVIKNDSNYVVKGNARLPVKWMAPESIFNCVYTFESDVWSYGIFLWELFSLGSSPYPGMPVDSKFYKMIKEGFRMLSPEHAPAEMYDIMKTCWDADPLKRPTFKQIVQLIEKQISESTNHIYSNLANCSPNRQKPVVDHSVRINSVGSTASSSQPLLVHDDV
Details: at 1 µM
readout_type: inhibition (%)
Use % as the unit, but write only the number.

Reference set, count: 5
structure_smiles | unit_tag | inhibition
Cc1ccc(-c2cc3c(NC(=O)C4CC4)ncnc3o2)cc1 | % | 5.68
NS(=O)(=O)c1cccc(N/C=C2\C(=O)Nc3ccccc32)c1 | % | 2.43
CCS(=O)(=O)c1ccc(OC)c(Nc2ncc(-c3cccc(F)c3)o2)c1 | % | 9.62
Cc1cc(O)cc(C)c1/C=C/c1cncc(C(=O)OC(C)(C)C)c1 | % | -1.16
c1ccc(-c2n[nH]cc2-c2ccnc(-c3ccc(OCCn4ccnc4)cc3)c2)nc1 | % | 19.5

Give the value of inhibition reported for the following: O=C(O[C@H]1CN[C@H](C#Cc2cc3ncnc(Nc4ccc5c(ccn5Cc5cc(F)ccc5F)c4)c3s2)C1)N1CCOCC1
3.82

Give the value of inhibition reported for the following: COc1cc(N2CCN(C(C)C)CC2)ccc1Nc1nc(Nc2cccc3ncccc23)c2cc[nH]c2n1
-2.2

###

Target: Muscle, skeletal receptor tyrosine-protein kinase (Homo sapiens);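 further: reported value is the mean percent inhibition of MuSK kinase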
Sequence (whole entry): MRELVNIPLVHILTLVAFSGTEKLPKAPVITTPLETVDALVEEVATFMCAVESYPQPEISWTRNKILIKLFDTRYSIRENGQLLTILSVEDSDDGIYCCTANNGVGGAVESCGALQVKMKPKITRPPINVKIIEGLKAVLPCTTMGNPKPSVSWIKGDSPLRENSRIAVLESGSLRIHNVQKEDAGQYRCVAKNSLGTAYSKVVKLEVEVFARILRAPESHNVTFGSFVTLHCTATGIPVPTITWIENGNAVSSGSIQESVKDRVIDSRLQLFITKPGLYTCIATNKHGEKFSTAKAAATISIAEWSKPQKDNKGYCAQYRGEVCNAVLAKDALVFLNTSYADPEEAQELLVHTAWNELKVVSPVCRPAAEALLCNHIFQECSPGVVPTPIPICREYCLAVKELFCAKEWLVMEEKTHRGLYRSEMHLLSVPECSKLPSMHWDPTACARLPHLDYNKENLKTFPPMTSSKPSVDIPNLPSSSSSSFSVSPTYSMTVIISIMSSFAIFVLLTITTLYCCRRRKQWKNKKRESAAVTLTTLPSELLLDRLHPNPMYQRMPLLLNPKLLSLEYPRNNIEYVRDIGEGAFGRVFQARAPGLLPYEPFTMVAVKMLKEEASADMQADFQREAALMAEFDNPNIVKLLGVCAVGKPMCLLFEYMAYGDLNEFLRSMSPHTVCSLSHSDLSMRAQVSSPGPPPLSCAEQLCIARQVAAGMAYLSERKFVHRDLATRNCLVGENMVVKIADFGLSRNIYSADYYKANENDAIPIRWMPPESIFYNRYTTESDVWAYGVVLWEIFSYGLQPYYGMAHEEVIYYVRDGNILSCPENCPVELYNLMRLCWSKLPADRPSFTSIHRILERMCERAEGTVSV
Settings: at 1 µM
Listed compounds paired with reported inhibition
Use % as the unit, but write only the number.

Reference set, count: 6
compound | assay_system | recorded_result
COc1cc(N2CCN(C(C)C)CC2)ccc1Nc1nc(Nc2cccc3ncccc23)c2cc[nH]c2n1 | Muscle, skeletal receptor tyrosine-protein kinase (Homo sapiens) | 9.48
COC(=O)Nc1nc2cc(Oc3ccc(NC(=O)Nc4ccccc4)cc3)ccc2[nH]1 | Muscle, skeletal receptor tyrosine-protein kinase (Homo sapiens) | 2.88
COc1c(C(N)=O)cc(-c2ccc(Cl)cc2)cc1-c1ccc(S(N)(=O)=O)cc1 | Muscle, skeletal receptor tyrosine-protein kinase (Homo sapiens) | 7.45
OCCCNc1nccc(-c2c(-c3ccc(F)cc3)nn3cc(C(F)(F)F)ccc23)n1 | Muscle, skeletal receptor tyrosine-protein kinase (Homo sapiens) | 6.98
NS(=O)(=O)c1ccc(N/N=C2\C(=O)Nc3cccc(CCc4ccncc4)c32)cc1 | Muscle, skeletal receptor tyrosine-protein kinase (Homo sapiens) | 24.2
O=C(Nc1n[nH]c2nnc(-c3cccnc3)cc12)C1CC1 | Muscle, skeletal receptor tyrosine-protein kinase (Homo sapiens) | -0.99

Give the value of inhibition reported for the following: N#Cc1ccc2c(-c3ccnc(NC4CC4)n3)c(-c3ccc(F)cc3)nn2c1
-0.28

Give the value of inhibition reported for the following: Fc1ccc(Nc2nccc(-c3c(-c4ccc(C(F)(F)F)cc4)nn4ncccc34)n2)cc1F
2.81

Give the value of inhibition reported for the following: CS(=O)(=O)Nc1ccc(-c2ccc3c(NC(=O)C4CC4)n[nH]c3c2)cc1
7.76

Give the value of inhibition reported for the following: NS(=O)(=O)c1cccc(N/C=C2\C(=O)Nc3ccccc32)c1
12.1

Give the value of inhibition reported for the following: O=C(O[C@H]1CN[C@H](C#Cc2cc3ncnc(Nc4ccc5c(ccn5Cc5cc(F)ccc5F)c4)c3s2)C1)N1CCOCC1
4.92

Give the value of inhibition reported for the following: CC(C)c1ccc(-c2cc(-c3c[nH]nc3-c3ccccn3)ccn2)cc1
6.85

Give the value of inhibition reported for the following: CCCNc1cccc(-n2ncc3c(N/N=C/c4ccncc4)ncnc32)c1
49.9

Give the value of inhibition reported for the following: CS(=O)(=O)CCNCc1ccoc1-c1ccc2ncnc(Nc3ccc(OCc4ccccc4)cc3)c2c1
3.07

Give the value of inhibition reported for the following: Cc1cc(O)cc(C)c1/C=C/c1cncc(C(N)=O)c1
3.91

Give the value of inhibition reported for the following: CC1=C(C(=O)Nc2ccc3[nH]nc(C)c3c2)C(c2ccc(C(F)(F)F)cc2)CC(=O)N1 (centres undefined)
23.7

Give the value of inhibition reported for the following: CCn1c(-c2nonc2N)nc2cncc(C(=O)NCCNC)c21
-0.23

Give the value of inhibition reported for the following: COc1ccc(-c2nn3ncccc3c2-c2ccnc(Nc3ccc(F)c(F)c3)n2)cc1
3.15

Give the value of inhibition reported for the following: O=C1Nc2ccccc2/C1=C1\CCc2cc(O)ccc21
32.1

Give the value of inhibition reported for the following: COc1ccc(Nc2ncc(-c3ccccc3)o2)cc1OC
19.2

Give the value of inhibition reported for the following: CN(c1ccc(NC(=O)NCCN2CCOCC2)cc1)c1ccnc(Nc2ccc(CS(C)(=O)=O)cc2)n1
8.61

Give the value of inhibition reported for the following: FC(F)(F)CNc1nccc(-c2cnn3ncccc23)n1
-2.34

Give the value of inhibition reported for the following: CC1(C)CC(n2cnc(-c3ccc(F)cc3)c2-c2ccnc(N)n2)CC(C)(C)N1
5.42

Give the value of inhibition reported for the following: CS(=O)(=O)CCNCc1ccc(-c2ccc3ncnc(Nc4ccc(OCc5ccccc5)cc4)c3c2)o1
1.04

###

Molecular target: Serine/threonine-protein kinase Sgk2 (Homo sapiens) (UniProt Q9HBY8);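 further: each value is a mean percent inhibition of SGK2 from the GSK PKIS kinase screen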
Sequence (whole entry): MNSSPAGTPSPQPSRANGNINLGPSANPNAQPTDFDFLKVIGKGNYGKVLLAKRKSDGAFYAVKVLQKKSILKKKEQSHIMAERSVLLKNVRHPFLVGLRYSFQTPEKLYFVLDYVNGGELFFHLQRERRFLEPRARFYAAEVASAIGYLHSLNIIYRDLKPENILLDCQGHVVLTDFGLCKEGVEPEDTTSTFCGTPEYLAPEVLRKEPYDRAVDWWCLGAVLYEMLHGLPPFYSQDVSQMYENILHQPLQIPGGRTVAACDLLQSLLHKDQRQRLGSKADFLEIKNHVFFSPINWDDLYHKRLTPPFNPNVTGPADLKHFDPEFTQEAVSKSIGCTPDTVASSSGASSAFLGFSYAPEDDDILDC
Conditions: at 0.1 µM
Listed compounds paired with reported inhibition
Use % as the unit, but write only the number.

Reference set, count: 3
structure_smiles | readout_type | recorded_result
CCS(=O)(=O)c1ccc(OC)c(Nc2ncc(-c3cccc(F)c3)o2)c1 | inhibition | 0.06
Cc1nnc(-c2cccc(-c3ccc(C(=O)NCC4CC4)cc3)c2)o1 | inhibition | 2.96
CS(=O)(=O)CCNCc1ccc(-c2ccc3ncnc(Nc4ccc(OCc5cccc(C(F)(F)F)c5)cc4)c3c2)o1 | inhibition | 4.41

--- query ---
Give the value of inhibition reported for the following: OCCCNc1nccc(-c2c(-c3ccc(F)cc3)nn3cc(C(F)(F)F)ccc23)n1
1.44

###

Biological target: Fibroblast growth factor receptor 2 (Homo sapiens) (UniProt P21802);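 further: values are mean percent inhibition of FGFR2 kinase, measured within the GSK Published Kinase Inhibitor Set (PKIS) screening panel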
Sequence (P21802 22-821 limits assumed): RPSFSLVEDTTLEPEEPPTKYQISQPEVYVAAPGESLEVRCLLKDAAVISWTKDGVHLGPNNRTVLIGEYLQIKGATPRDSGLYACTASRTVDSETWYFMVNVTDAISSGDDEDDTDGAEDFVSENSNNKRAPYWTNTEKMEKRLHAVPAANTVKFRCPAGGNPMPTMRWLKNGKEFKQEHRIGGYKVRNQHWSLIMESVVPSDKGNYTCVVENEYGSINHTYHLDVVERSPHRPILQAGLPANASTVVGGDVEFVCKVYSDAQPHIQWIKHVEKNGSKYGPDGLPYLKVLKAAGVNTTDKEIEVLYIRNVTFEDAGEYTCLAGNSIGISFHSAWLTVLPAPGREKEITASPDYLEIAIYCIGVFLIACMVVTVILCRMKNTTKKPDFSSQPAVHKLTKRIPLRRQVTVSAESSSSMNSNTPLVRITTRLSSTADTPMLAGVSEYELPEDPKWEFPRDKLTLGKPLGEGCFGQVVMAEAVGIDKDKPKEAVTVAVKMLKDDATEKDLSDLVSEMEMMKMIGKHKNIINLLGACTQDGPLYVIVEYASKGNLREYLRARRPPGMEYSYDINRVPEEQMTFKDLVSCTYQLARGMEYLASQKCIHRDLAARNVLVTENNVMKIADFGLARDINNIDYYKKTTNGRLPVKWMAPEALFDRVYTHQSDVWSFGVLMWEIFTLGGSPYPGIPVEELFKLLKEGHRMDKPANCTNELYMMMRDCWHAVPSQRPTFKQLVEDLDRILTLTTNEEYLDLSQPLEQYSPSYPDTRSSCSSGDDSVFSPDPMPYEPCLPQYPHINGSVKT
Settings: at 0.1 µM
Listed compounds paired with reported inhibition
Use % as the unit, but write only the number.

Reference set, count: 8
compound | assay_system | recorded_result
CS(=O)(=O)CCNCc1ccc(-c2ccc3ncnc(Nc4ccc(OCc5ccccc5)cc4)c3c2)o1 | Fibroblast growth factor receptor 2 (Homo sapiens) (UniProt P21802) | 3.26
NS(=O)(=O)c1ccc(N/N=C2\C(=O)Nc3cccc(CCc4ccncc4)c32)cc1 | Fibroblast growth factor receptor 2 (Homo sapiens) (UniProt P21802) | 7.6
CNC(=O)c1ncccc1Nc1nc(Nc2cc3c(cc2OC)CCCN3C(=O)CN(C)C)nc2[nH]ccc12 | Fibroblast growth factor receptor 2 (Homo sapiens) (UniProt P21802) | 6.69
O=C1Nc2ccccc2/C1=C1\CCc2cc(O)ccc21 | Fibroblast growth factor receptor 2 (Homo sapiens) (UniProt P21802) | 9.87
c1ccc(-c2n[nH]cc2-c2ccnc(-c3ccc(OCCn4ccnc4)cc3)c2)nc1 | Fibroblast growth factor receptor 2 (Homo sapiens) (UniProt P21802) | 0.47
COC(=O)Nc1nc2ccc(Oc3ccc(NC(=O)Nc4cc(C(F)(F)F)ccc4F)cc3)cc2s1 | Fibroblast growth factor receptor 2 (Homo sapiens) (UniProt P21802) | 2.26
CCCNc1cccc(-n2ncc3c(N/N=C/c4ccncc4)ncnc32)c1 | Fibroblast growth factor receptor 2 (Homo sapiens) (UniProt P21802) | 2.19
CS(=O)(=O)CCNCc1ccc(-c2ccc3ncnc(Nc4ccc(OCc5cccc(C(F)(F)F)c5)cc4)c3c2)o1 | Fibroblast growth factor receptor 2 (Homo sapiens) (UniProt P21802) | 6.07

Give the value of inhibition reported for the following: COc1c(C(N)=O)cc(-c2ccc(Cl)cc2)cc1-c1ccc(S(N)(=O)=O)cc1
5.92

Give the value of inhibition reported for the following: Cn1c(-c2nonc2N)nc2cnccc21
2.83

Give the value of inhibition reported for the following: O=C(O[C@H]1CN[C@H](C#Cc2cc3ncnc(Nc4ccc(OCc5cccc(F)c5)c(Cl)c4)c3s2)C1)N1CCOCC1
6.97

Give the value of inhibition reported for the following: COc1cc(N2CCN(C(C)C)CC2)ccc1Nc1nc(Nc2cccc3ncccc23)c2cc[nH]c2n1
-2.09

Give the value of inhibition reported for the following: O=C(O[C@H]1CN[C@H](C#Cc2cc3ncnc(Nc4ccc5c(cnn5Cc5ccccc5)c4)c3s2)C1)N1CCOCC1
-0.61

Give the value of inhibition reported for the following: CNC(=O)c1cncc(/C=C/c2ccccc2C)c1
2.42

Give the value of inhibition reported for the following: CCn1c(-c2nonc2N)nc2cncc(C(=O)NCCNC)c21
3.81

Give the value of inhibition reported for the following: CCOc1ccc2c(-c3ccnc(Nc4cc(OC)cc(C(F)(F)F)c4)n3)cnn2n1
-1.84

Give the value of inhibition reported for the following: CC1=C(C(=O)Nc2ccc3[nH]nc(C)c3c2)C(c2ccc(C(F)(F)F)cc2)CC(=O)N1 (stereo not drawn)
4.48

Give the value of inhibition reported for the following: CS(=O)(=O)Nc1ccc(-c2cc(-c3ccccc3)cc(C(N)=O)c2N)cc1
1.73
